Reported normalised viability values are given for each entry in this list.
System: MDA-MB-468
Assay Text: normalised viability (% of control), CellTiter-Blue; higher = more viable cells (100 = DMSO, 0 = benzethonium chloride kill control)
Test Parameters: incubation time: 72 h
Test Readout: normalised viability (%)

# Compound, Reported Measurement
records = [
    ("COc1cccc2c1C(=O)c1c(O)c3c(c(O)c1C2=O)C[C@@](O)(C(=O)CO)C[C@@H]3O[C@H]1C[C@H](N)[C@H](O)[C@H](C)O1 [Doxorubicin] (0.1 nM)", 104),
    ("CN(C)C/C=C/C(=O)Nc1cc2c(Nc3ccc(F)c(Cl)c3)ncnc2cc1O[C@H]1CCOC1 [Afatinib] (1 nM)", 107),
    ("COc1cc(Nc2ncc3c(n2)-c2ccc(Cl)cc2C(c2c(F)cccc2OC)=NC3)ccc1C(=O)O [MLN8237] (1 nM)", 105),
    ("Cc1ccc(F)c(NC(=O)Nc2ccc(-c3cccc4[nH]nc(N)c34)cc2)c1 [Linifanib] (0.1 nM)", 130),
    ("S=c1[nH]cnc2nc[nH]c12 [Mercaptopurine] (1 nM)", 98.7),
    ("Nc1nc(Cl)nc2c1ncn2[C@H]1C[C@H](O)[C@@H](CO)O1 [Cladribine] (0.1 nM)", 98.4),
]

* * *

Reported normalised viability values are given for each entry in this list.
System: CAL-148
Assay Text: normalised viability (% of control), CellTiter-Blue; higher = more viable cells (100 = DMSO, 0 = benzethonium chloride kill control)
Test Parameters: incubation time: 72 h

# Compound, Assayed System, normalised viability, %
data = [
    ("COc1cccc2cc(-c3nc([C@H]4CC[C@H](C(=O)O)CC4)n4ncnc(N)c34)[nH]c12 [OSI-027] (1 nM)", "CAL-148", 96.1),
    ("CS(=O)(=O)c1ccc(C(=O)Nc2ccc(Cl)c(-c3ccccn3)c2)c(Cl)c1 [Vismodegib] (1 nM)", "CAL-148", 94.9),
    ("C[C@]1(c2nc3c(C(N)=O)cccc3[nH]2)CCCN1 [Veliparib] (1 nM)", "CAL-148", 101),
    ("Nc1nc(Cl)nc2c1ncn2[C@H]1C[C@H](O)[C@@H](CO)O1 [Cladribine] (0.1 nM)", "CAL-148", 117),
    ("CN1CC[C@H](c2c(O)cc(O)c3c(=O)cc(-c4ccccc4Cl)oc23)[C@H](O)C1 [Alvocidib] (1 nM)", "CAL-148", 104),
    ("Clc1ccc(C(c2ccccc2Cl)C(Cl)Cl)cc1 (configuration not stated) [Mitotane] (1 nM)", "CAL-148", 117),
    ("C=CC[C@@H]1/C=C(\\C)C[C@H](C)C[C@H](OC)[C@H]2O[C@@](O)(C(=O)C(=O)N3CCCC[C@H]3C(=O)O[C@H](/C(C)=C/[C@@H]3CC[C@@H](O)[C@H](OC)C3)[C@H](C)[C@@H](O)CC1=O)[C@H](C)C[C@@H]2OC [Tacrolimus] (1 nM)", "CAL-148", 110),
]

* * *

System: MDA-MB-436
Assay Text: normalised response (% of control), CellTiter-Glo; higher = more viable cells (100 = DMSO, 0 = benzethonium chloride kill control)
Test Parameters: incubation time: 72 h
Reported normalised response values are given for each entry in this list.

# Compound, Unit, normalised response
measured = [
    ("N#CC[C@H](C1CCCC1)n1cc(-c2ncnc3[nH]ccc23)cn1 [Ruxolitinib] (10 nM)", "%", 92.2),
    ("CN(C)C/C=C/C(=O)Nc1cc2c(Nc3ccc(F)c(Cl)c3)ncnc2cc1O[C@H]1CCOC1 [Afatinib] (1 nM)", "%", 105),
    ("COc1cccc2cc(-c3nc([C@H]4CC[C@H](C(=O)O)CC4)n4ncnc(N)c34)[nH]c12 [OSI-027] (10 nM)", "%", 93.8),
    ("CC(=O)O[C@]1(C(C)=O)CC[C@H]2[C@@H]3C=C(C)C4=CC(=O)CC[C@]4(C)[C@H]3CC[C@@]21C [Megestrol acetate] (1000 nM)", "%", 101),
    ("CN1CC[C@H](c2c(O)cc(O)c3c(=O)cc(-c4ccccc4Cl)oc23)[C@H](O)C1 [Alvocidib] (1 nM)", "%", 97.9),
    ("C=CC[C@@H]1/C=C(\\C)C[C@H](C)C[C@H](OC)[C@H]2O[C@@](O)(C(=O)C(=O)N3CCCC[C@H]3C(=O)O[C@H](/C(C)=C/[C@@H]3CC[C@@H](O)[C@H](OC)C3)[C@H](C)[C@@H](O)CC1=O)[C@H](C)C[C@@H]2OC [Tacrolimus] (1000 nM)", "%", 99.7),
]

These measurements were taken from the supplement of paper PMC4862054.
